Cited source for all entries: ChEMBL document CHEMBL1201862

Consider the following AC50 values measured on Cytochrome P450 1A2 (Homo sapiens, UniProt P05177).
Sequence (P05177 whole entry): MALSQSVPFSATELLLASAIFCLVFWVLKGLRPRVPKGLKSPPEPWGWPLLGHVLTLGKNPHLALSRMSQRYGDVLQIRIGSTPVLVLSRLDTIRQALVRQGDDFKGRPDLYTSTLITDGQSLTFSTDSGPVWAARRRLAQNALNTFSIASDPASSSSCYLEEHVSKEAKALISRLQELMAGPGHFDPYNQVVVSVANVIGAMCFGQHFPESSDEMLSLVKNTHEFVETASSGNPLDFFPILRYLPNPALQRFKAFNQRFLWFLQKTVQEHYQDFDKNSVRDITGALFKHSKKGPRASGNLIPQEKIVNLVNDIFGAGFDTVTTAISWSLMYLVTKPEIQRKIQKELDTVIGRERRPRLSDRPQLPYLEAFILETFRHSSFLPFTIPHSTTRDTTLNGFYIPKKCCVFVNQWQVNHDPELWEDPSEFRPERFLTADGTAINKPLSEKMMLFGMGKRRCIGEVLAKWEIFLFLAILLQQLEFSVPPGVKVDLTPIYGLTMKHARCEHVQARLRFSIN

Worked examples, 4 molecules total:
>>> recorded_value("O=C1/C(=N\\O)Cc2ccccc21")
"14.1 µM (inconclusive)"
>>> recorded_value("O=[N+]([O-])c1ccc(Nc2nc(N/N=C\\c3ccc4c(c3)OCO4)nc(N3CCCCC3)n2)cc1")
"8.91 µM (inconclusive)"
>>> recorded_value("C=CCn1c(Cc2c[nH]c3ccccc23)nnc1SCC(=O)NCc1ccccc1")
"12.6 µM (inconclusive)"
>>> recorded_value("Clc1ccc2c(c1)C1=C(C(c3ccncc3)O2)C(c2ccc(Br)cc2)n2ncnc2N1 (stereo not given)")
"25.1 µM (inconclusive)"

We now examine a further molecule.
Bench note, Cytochrome P450 1A2 (Homo sapiens, UniProt P05177): entry CCN=C(S)NNC(=O)c1cccc(Br)c1 , its AC50 = 17.8 µM (inconclusive)

* * *

- target_of_assay: Cytochrome P450 1A2 (Homo sapiens);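 also: PubChem cytochrome P450 panel assay, CYP1A2 panel member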
Entries and their AC50

Worked examples, 2 compounds total:
>>> recorded_value("Cc1ccc(/N=N\\c2c(O)ccc3cc(S(=O)(=O)O)ccc23)cc1")
"5.01 µM (inconclusive)"
>>> recorded_value("Cc1cc(NC(=O)c2c([N+](=O)[O-])c(C)nn2C)no1")
"39.8 µM (inconclusive)"

For reference, reported AC50 for O=C(c1ccc(F)cc1)C1CCN(CCCCc2ccccc2)CC1 stands at 31.6 µM (inconclusive)

For reference, reported AC50 for C(=C/c1ccccc1)/CN1CCN(CCOC(c2ccccc2)c2ccccc2)CC1 stands at 20 µM (inconclusive)

* * *

- target_of_assay: Streptokinase A (Streptococcus pyogenes serotype M1, UniProt P10520)
- Sequence (P10520 whole entry): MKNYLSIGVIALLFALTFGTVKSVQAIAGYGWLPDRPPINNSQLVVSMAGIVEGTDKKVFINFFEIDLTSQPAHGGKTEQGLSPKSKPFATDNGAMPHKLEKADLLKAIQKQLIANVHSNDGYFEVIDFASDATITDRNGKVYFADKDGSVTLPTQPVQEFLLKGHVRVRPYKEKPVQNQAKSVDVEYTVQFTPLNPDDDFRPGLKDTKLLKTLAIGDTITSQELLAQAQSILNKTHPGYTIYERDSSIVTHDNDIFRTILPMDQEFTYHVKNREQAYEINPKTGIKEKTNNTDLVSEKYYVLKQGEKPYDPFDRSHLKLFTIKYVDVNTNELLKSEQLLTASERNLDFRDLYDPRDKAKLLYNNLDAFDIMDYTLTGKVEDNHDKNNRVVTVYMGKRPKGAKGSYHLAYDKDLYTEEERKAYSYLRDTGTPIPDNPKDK
- experiment_description: S. pyogenes streptokinase expression inhibitors, potency, dose response, plasminogen activation absorbance, OD405 (AID 1914);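 also: secreted streptokinase activity via plasminogen activation per viability signal from cell pellet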
- Format: functional, Streptococcus pyogenes M1 GAS
Calls of active or inactive are those of the source.
outcome_measure: EC50

Worked examples, 6 compounds total:
>>> recorded_value("NNC(=O)CSc1nc(-c2ccccc2)nc2c1CCCC2")
"> 150 µM (not active)"
>>> recorded_value("CC12CCC(CC1)C(C)(C)O2")
"> 150 µM (not active)"
>>> recorded_value("Cc1ccnc(NC(=S)N2CCN(c3cccc(C(F)(F)F)c3)CC2)c1")
"> 150 µM (not active)"
>>> recorded_value("COc1cc2ccccc2cc1C(=O)Nc1ccc(NC(=O)c2cccs2)cc1")
"> 150 µM (not active)"
>>> recorded_value("Oc1ccc(/C=N/Nc2ccc3ccccc3c2)c(O)c1")
"> 150 µM (not active)"
>>> recorded_value("CSc1nc(Oc2ccc3ccccc3c2)c2sccc2n1")
"39.1 µM (active)"

We now examine a further compound.
For reference, reported EC50 for Cn1c(=O)n(C)c2cc(NS(=O)(=O)c3ccccc3[N+](=O)[O-])ccc21 stands at > 150 µM (not active)

* * *

- target_of_assay: UniProtKB P9WHJ3
- experiment_description: Fluorescence Cell-Free Homogeneous Dose Retest to Identify Inhibitors of RecA-Intein Splicing Activity. [Related pubchem assays (depositor defined):AID2097, AID2223, AID489010, AID492950]
- Type: functional
Active and inactive are the calls of the source.
Entries and their EC50

For reference, reported EC50 for O=[N+]([O-])c1cncc([N+](=O)[O-])c1Nc1cccc(O)c1 stands at 3280 nM (active)

For reference, reported EC50 for COc1ccc2nc3cc(Cl)ccc3c(Nc3cc(C(C)C)c(O)cc3C)c2c1 stands at 318 nM (active)

For reference, reported EC50 for Cc1[nH]n(-c2ccccc2)c(=O)c1C(c1cccc([N+](=O)[O-])c1)c1c(C)[nH]n(-c2ccccc2)c1=O stands at 805 nM (active)

For reference, reported EC50 for CN(Cc1ccc(Cl)s1)C(=O)CCl stands at 8930 nM (active)

For reference, reported EC50 for CCC(C)[C@@H](NC(=O)OC(C)(C)C)c1nnc(S(=O)(=O)Cc2cccc(C)c2)o1 (stereo not given in full) stands at 2500 nM (active)

* * *

- target_of_assay: Cytochrome P450 3A4 (Homo sapiens);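 also: confirmatory qHTS run detecting inhibitors and substrates of CYP3A4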
- Sequence (P08684 whole entry): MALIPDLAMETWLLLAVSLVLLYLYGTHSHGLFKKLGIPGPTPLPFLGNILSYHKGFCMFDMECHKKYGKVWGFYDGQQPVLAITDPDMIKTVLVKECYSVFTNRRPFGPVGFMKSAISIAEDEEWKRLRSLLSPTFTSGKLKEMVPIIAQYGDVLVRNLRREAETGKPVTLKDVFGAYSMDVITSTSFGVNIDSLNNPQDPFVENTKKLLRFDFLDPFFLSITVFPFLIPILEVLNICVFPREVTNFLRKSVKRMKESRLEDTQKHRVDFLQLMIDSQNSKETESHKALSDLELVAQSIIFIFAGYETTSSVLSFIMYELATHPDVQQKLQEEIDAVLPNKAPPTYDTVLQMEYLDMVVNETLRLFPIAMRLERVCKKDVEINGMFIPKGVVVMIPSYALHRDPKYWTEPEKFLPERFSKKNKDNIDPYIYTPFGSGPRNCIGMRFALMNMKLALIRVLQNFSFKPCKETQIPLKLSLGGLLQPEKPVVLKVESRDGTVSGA
- measurement_parameters: Potency
Entries and their AC50

Worked examples, 3 compounds total:
>>> recorded_value("COc1ccc(CNC(=O)C(C)Cc2ccccc2)cc1O (centres undefined)")
"6.31 µM (inconclusive)"
>>> recorded_value("Oc1cc(Cl)c(Cl)c(Cl)c1")
"12.6 µM (inconclusive)"
>>> recorded_value("Cc1ccc2nc(-c3ccc(N)cc3)sc2c1S(=O)(=O)O")
"31.6 µM (inconclusive)"

We now examine a further compound.
Bench note, Cytochrome P450 3A4 (Homo sapiens): entry CCCCCCN(C(=O)CCCCCN1C(=O)NC(c2ccc(-c3ccccc3)cc2)C(C(=O)OCc2ccccc2)=C1C)C(C(=O)NCCCC)c1ccccc1 (centres undefined) , its AC50 = 2 µM (inconclusive)

* * *

Entries and their IC50
- target_of_assay: Polyadenylate-binding protein 1 (Homo sapiens)
- Sequence (P11940 whole entry): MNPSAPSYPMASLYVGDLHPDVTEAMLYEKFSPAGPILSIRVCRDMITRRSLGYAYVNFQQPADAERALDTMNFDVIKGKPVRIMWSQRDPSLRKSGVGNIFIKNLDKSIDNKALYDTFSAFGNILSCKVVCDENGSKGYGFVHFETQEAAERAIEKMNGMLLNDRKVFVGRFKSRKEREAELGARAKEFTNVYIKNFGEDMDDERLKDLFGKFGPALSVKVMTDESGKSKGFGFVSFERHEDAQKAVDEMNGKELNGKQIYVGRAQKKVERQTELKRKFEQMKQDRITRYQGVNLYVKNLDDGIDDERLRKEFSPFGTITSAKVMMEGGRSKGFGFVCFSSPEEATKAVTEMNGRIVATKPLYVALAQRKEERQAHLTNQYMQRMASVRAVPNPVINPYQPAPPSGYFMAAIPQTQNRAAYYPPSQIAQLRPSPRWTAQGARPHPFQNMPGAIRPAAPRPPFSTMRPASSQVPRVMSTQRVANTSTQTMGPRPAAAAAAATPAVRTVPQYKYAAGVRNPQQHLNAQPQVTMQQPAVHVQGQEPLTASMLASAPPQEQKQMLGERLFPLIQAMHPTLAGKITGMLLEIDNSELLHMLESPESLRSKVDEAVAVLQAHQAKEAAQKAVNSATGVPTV
- experiment_description: PABP1 MLLE–PAM2 binding inhibitor potency, dose response, biochemical, fluorescence polarization, FITC-PAM2 peptide (AID 602259)
- Format: functional
- measurement_parameters: read-out: IC50_Mean
The source made the active and inactive calls.

>>> recorded_value("O=C(O)CSC1CC(=O)N(c2ccc(Cl)c(Cl)c2)C1=O (stereo not drawn)")
"> 66 µM (inactive)"
>>> recorded_value("Cc1c(O)n(-c2ccc(F)cc2)c(SCC(=O)Nc2ccc3c4c(cccc24)CC3)nc1=O")
"> 66 µM (inactive)"

For reference, reported IC50 for O=C1C2=C(SCCS2)C(=O)N1CCCO stands at 28 µM (inactive)

* * *

- target_of_assay: FAD-linked sulfhydryl oxidase ALR (Homo sapiens, UniProt P55789)
- Sequence (P55789 whole entry): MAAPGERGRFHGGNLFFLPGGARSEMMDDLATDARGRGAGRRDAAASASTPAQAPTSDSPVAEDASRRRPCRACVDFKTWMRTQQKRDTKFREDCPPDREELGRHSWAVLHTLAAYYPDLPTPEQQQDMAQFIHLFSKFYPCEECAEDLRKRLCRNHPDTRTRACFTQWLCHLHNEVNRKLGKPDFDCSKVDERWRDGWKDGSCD
- experiment_description: inhibitors of human ALR sulfhydryl oxidase, dose response, biochemical, H2O2 detection, luminescence, cherry-pick (AID 493248)
Calls of active or inactive are those of the source.
Entries and their AC50

Worked examples, 4 compounds total:
>>> recorded_value("N#Cc1ccsc1NC(=O)CN1CCN(c2ccccc2O)CC1")
"1460 nM (active)"
>>> recorded_value("Cn1c(=O)c2[nH]c(Nc3ccccc3)nc2n(C)c1=O")
"398 nM (active)"
>>> recorded_value("O=C(NCCCN1CCCC1)c1ccc2c(c1)N(Cc1ccccc1)CCS2")
"22 nM (active)"
>>> recorded_value("Nc1nnc(Nc2ccc(Cl)cc2)[nH]1")
"4220 nM (active)"

For reference, reported AC50 for CCN(CCNC(=O)C1CCN(Cc2nc(-c3cccc(Cl)c3)oc2C)CC1)c1ccccc1 stands at 24 nM (active)

For reference, reported AC50 for Cc1ccc(NNC(=O)c2ccno2)c(C)c1 stands at 3480 nM (active)

For reference, reported AC50 for Oc1cc(O)cc(/C=C/c2ccc(O)c(O)c2)c1 stands at 689 nM (active)

* * *

- target_of_assay: RNA-binding protein pos-1 (Caenorhabditis elegans, UniProt G5EF15)
- Sequence (G5EF15 whole entry, the tested form may be a part): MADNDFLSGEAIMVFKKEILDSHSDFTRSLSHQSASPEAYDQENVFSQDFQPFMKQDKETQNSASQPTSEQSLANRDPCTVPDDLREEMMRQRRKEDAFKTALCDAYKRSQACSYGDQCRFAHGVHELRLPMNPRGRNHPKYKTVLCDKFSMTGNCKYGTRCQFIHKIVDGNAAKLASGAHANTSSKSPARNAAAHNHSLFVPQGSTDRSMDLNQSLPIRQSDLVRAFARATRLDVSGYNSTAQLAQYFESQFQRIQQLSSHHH
- experiment_description: inhibitors of POS-1/mex-3 RNA binding, dose response, biochemical, fluorescence polarization (AID 1964);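 also: purified POS-1 fused to maltose binding protein made in E. coli; potency of compounds blocking POS-1 binding to fluorescent RNA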
Active and inactive are the calls of the source.
Entries and their EC50

>>> recorded_value("CCn1c(C)cc(/C=C2\\C(=O)NC(=O)N(c3ccccc3C)C2=O)c1C")
"> 300 µM (not active)"
>>> recorded_value("CCC(=O)OC1(C)C(=O)C=C2C=C(CCCCNC(=O)OC(C)(C)C)OC=C2C1=O (stereo not drawn)")
"33.5 µM (active)"

We now examine a further molecule.
Bench note, RNA-binding protein pos-1 (Caenorhabditis elegans, UniProt G5EF15): entry O=[N+]([O-])c1ccc(Nc2ccccc2O)c2nonc12 , its EC50 = 24.4 µM (active)

* * *

- target_of_assay: Streptokinase A (Streptococcus pyogenes serotype M1)
- experiment_description: S. pyogenes streptokinase expression inhibitors, potency, dose response, plasminogen activation absorbance, OD405 (AID 1914)
- Format: functional, Streptococcus pyogenes M1 GAS
Active and inactive are the calls of the source.
Entries and their EC50

Worked examples, 2 compounds total:
>>> recorded_value("Cn1c(N)c(C(=O)COC(=O)CCc2c[nH]c3ccccc23)c(=O)n(C)c1=O")
"> 150 µM (not active)"
>>> recorded_value("Oc1[nH]c2ccccc2c1N=NC(S)=NCCc1ccccc1")
"> 150 µM (not active)"

We now examine a further compound.
For reference, reported EC50 for Oc1ccccc1-c1nc2c3ccccc3c3ccccc3c2[nH]1 stands at 4.11 µM (active)

* * *

- target_of_assay: Streptokinase A (Streptococcus pyogenes serotype M1, UniProt P10520)
- experiment_description: S. pyogenes streptokinase expression inhibitors, potency, dose response, plasminogen activation absorbance, OD405 (AID 1914);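 also: secreted streptokinase activity via plasminogen activation per viability signal from cell pellet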
- Assay type: functional, Streptococcus pyogenes M1 GAS
Active and inactive are the calls of the source.
Entries and their EC50

For reference, reported EC50 for Cc1sc2cc3c(c(C(=O)c4ccccc4)[n+]2c1C)-c1cccc2cccc-3c12 stands at 31.9 µM (active)

For reference, reported EC50 for CCOC(=O)C1=NN(C(=O)c2ccc(OC)cc2)C(O)(c2ccc(Cl)cc2)C1 (centres undefined) stands at > 150 µM (not active)

For reference, reported EC50 for NC(=O)c1ccc(NC(=O)COC(=O)c2c3c(nc4ccccc24)/C(=C\c2ccc4c(c2)OCO4)CCC3)cc1 stands at > 150 µM (not active)

For reference, reported EC50 for Cc1ccccc1OCCCc1c(C)n[nH]c1C stands at > 150 µM (not active)
